Hello, the source for this data is PubChem BioAssay (NCATS), in case you need it.

Tested on: ATS189
PROCEDURE_DETAILS: qHTS profiling for inhibitors of Plasmodium falciparum proliferation (AID 504749); also: nearly all actives have a fitted effect of over 60% in size
RECORDED_CONDITIONS: P. falciparum in erythrocytes, SYBR Green DNA, 72 h; series mostly up to 12.8 µM
Results filed as inconclusive are left out. Active and inactive are the calls of the source. Calls follow the shape of the dose curve; as a rule, active = well fitted inhibition curve with a large enough effect; inconclusive = small, poorly fitted or top-dose-only effect; inactive = flat fitted curve, though single readings scatter.
Pick from active, inactive when you respond.

Q. Tell me the assay call for C[C@H](O)Cn1cnc2c1c(=O)n(C)c(=O)n2C please.
A. inactive

Q. How was CC[C@H]1NC(=O)c2cc(S(N)(=O)=O)c(Cl)cc2N1 classified in this test?
A. inactive

Q. What call does the record list for CN1C(=O)C[C@H](c2ccccc2)C1=O ?
A. inactive

Q. What outcome does the record of this test show for C[C@]12CCC(=O)C=C1CCC1C2C(=O)C[C@]2(C)C1CC[C@]2(O)C(=O)CO (some centres not stated) ?
A. inactive

Q. Record lookup: outcome of this test for CC(=O)[C@@]1(O)CC[C@H]2[C@H]3C[C@@H](C)C4=CC(=O)C=C[C@]4(C)[C@@]3(F)[C@@H](O)C[C@]21C ?
A. inactive

Continuing:
Q. Query: recorded result category for NS(=O)(=O)c1cc2c(cc1C(F)(F)F)N[C@H](Cc1ccccc1)NS2(=O)=O in this test
A. inactive

Q. // return assay outcome for O=C(O)COCCN1CCN([C@@H](c2ccccc2)c2ccc(Cl)cc2)CC1
A. inactive

Q. What is the recorded call for this compound in the test? C=Cc1c(C)c2cc3nc(cc4[nH]c(cc5nc(cc1[nH]2)C(C)=C5CCC(=O)O)c(CCC(=O)OC)c4C)[C@@]1(C)C3=CC=C(C(=O)OC)[C@H]1C(=O)OC (tested in a mixture with another compound)
A. active

Q. Name the outcome recorded for CCCCC[C@H](O)/C=C\[C@@H]1[C@H](O)CC(=O)[C@@H]1CCCCCCC(=O)O in the assay.
A. inactive

Q. So what was the verdict on COc1ccc(CC(N)C(=O)NC2C(CO)OC(n3cnc4c(N(C)C)ncnc43)C2O)cc1 (configuration not stated) in this test?
A. active

Q. Which result was noted for this compound in the test: CC1(C)S[C@@H]2[C@H](NC(=O)[C@@H](N)c3ccccc3)C(=O)N2[C@H]1C(=O)O[C@H]1OC(=O)c2ccccc21
A. inactive
